Hey, just so you know, these numbers are from patent US20250215013A1.

compounds and their reported IC50
molecular target: recombinant poly(ADP-ribose) polymerase 2 (PARP2); experiment: PARP2 chemiluminescent assay; type: biochemical; conditions: inhibition of PARP2 enzyme activity, chemiluminescence
Expressed in nM, but write only the number.

Completed entries (count: 5):
ITEM_SMILES	VALUE_UNITS	IC50
CCNC(=O)c1ccc(N2CCN(Cc3ccc4c([nH]c(=O)c5occc54)c3F)CC2)c(F)n1	nM	5000
CNC(=O)c1ccc(N2CCN(Cc3cc4[nH]c(=O)c5c(F)cnn5c4cc3F)CC2)c(F)n1	nM	93.5
CNC(=O)c1ccc(N2CCN(Cc3ccc4c(c3)[nH]c(=O)c3c(F)c(C)nn34)CC2)c(C)n1	nM	30.6
CNC(=O)c1ccc(N2CCN(Cc3cc(F)c4c(c3)[nH]c(=O)c3c(F)cnn34)CC2)c(F)n1	nM	93.5
CNC(=O)c1ccc(N2CCN(Cc3ccc4c([nH]c(=O)c5cncn54)c3F)CC2)c(Cl)n1	nM	1570

# context switch: different compound, same IC50
### Prompt # IC50 lookup, item `CNC(=O)c1ccc(N2CCN(Cc3cc4[nH]c(=O)c5c(C)cnn5c4cc3F)CC2)c(F)n1`
### Response 145
